The measured values listed here are drawn from ChEMBL document CHEMBL4689842.

# Test system: HEK-293T
# Assay info: Multiplex assay against HEK293T
# Format: toxicity, cell-based
# Condition label: human, 48 h, 10 µM, compound concentration 10 uM, replicate 1
Recorded endpoint: Total Cell Count
In your answer, state the number alone without any accompanying words.

INPUT: Note down Total Cell Count recorded for CC(Cc1ccc(O)c(O)c1)C(C)Cc1ccc(O)c(O)c1 (stereo not drawn) [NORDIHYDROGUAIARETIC ACID]
OUTPUT: 187

INPUT: Note down Total Cell Count recorded for Cl.NC[C@@H]1O[C@H](C23CC4CC(CC(C4)C2)C3)Cc2c1ccc(O)c2O
OUTPUT: 286

INPUT: Note down Total Cell Count recorded for CN1CCN(Cc2ccc(-c3cnc4[nH]cc(-c5ccc6[nH]ccc6c5)c4c3)cc2)CC1
OUTPUT: 216

INPUT: Note down Total Cell Count recorded for Cc1c(Nc2ccc(S(=O)(=O)N3CCN(C)CC3)cc2F)nc2ccc(-c3cnn(C4CC4)c3)cn2c1=O
OUTPUT: 1023

INPUT: Note down Total Cell Count recorded for CC(C)C[C@H](NC(=O)[C@H](Cc1ccccc1)NC(=O)CNC(=O)CNC(=O)[C@@H](N)Cc1ccc(O)cc1)C(=O)O [ENKEPHALIN]
OUTPUT: 327

INPUT: Note down Total Cell Count recorded for CC(C)c1cc(Nc2nc(N3CCC[C@H](N)C3)ncc2C(N)=O)cc(C(C)C)n1
OUTPUT: 341

INPUT: Note down Total Cell Count recorded for CN1C(=O)[C@@H](NC(=O)c2cc3ccccc3[nH]2)N=C(c2ccccc2)c2ccccc21 [DEVAZEPIDE]
OUTPUT: 276

INPUT: Note down Total Cell Count recorded for Cc1ccc(S(=O)(=O)NC2c3ccccc3Oc3ccccc32)cc1
OUTPUT: 453

====

# System: HEK-293T
# Assay info: Multiplex assay against HEK293T
# Format: toxicity, cell-based
# Condition label: human, 24 h, 1 µM, compound concentration 1 uM, replicate 2
Would you kindly list Total Cell Count for each of these compounds?
In your answer, state the number alone without any accompanying words.

INPUT: Note down Total Cell Count recorded for CCCc1cc(C)[nH]c(=O)c1CNC(=O)c1cc(-c2ccc(N3CCN(C(C)C)CC3)nc2)cc2c1cnn2C(C)C
OUTPUT: 239

INPUT: Note down Total Cell Count recorded for CN(c1cc(C(F)(F)F)nc(OCCC(=O)O)n1)c1cccc2c1CCC2
OUTPUT: 250

INPUT: Note down Total Cell Count recorded for Cc1ccc(NC(=O)Nc2cc(C(F)(F)F)ccc2F)cc1Nc1ccc2c(c1)NC(=O)/C2=C\c1ccc[nH]1
OUTPUT: 1297

INPUT: Note down Total Cell Count recorded for CCOC(=O)CCNc1cc(N2CCc3ccccc3CC2)nc(-c2ccccn2)n1
OUTPUT: 2917

INPUT: Note down Total Cell Count recorded for Cc1c(P(=S)(c2ccccc2)c2ccccc2)n2ccccc2[n+]1C/C=C/c1ccccc1.[Br-]
OUTPUT: 147

====

# System: U2OS
# Assay info: Multiplex assay against U2OS
# Format: toxicity, cell-based
# Condition label: human, 12 h, 1 µM, compound concentration 1 uM, replicate 2
Recorded endpoint: Population Apoptotic (%)
Just the number please, in %, no unit attached.

INPUT: Give measured Population Apoptotic (%) for NC(=O)c1ccc2nc(-c3ccc(C4(N)CCC4)cc3)c(-c3ccccc3)n2n1 (U2OS).
OUTPUT: 42

INPUT: Give measured Population Apoptotic (%) for Cc1c(Nc2ccc(S(=O)(=O)N3CCN(C)CC3)cc2F)nc2ccc(Nc3cnn(C4CC4)c3)cn2c1=O (U2OS).
OUTPUT: 0

INPUT: Give measured Population Apoptotic (%) for Cc1ccc(S(=O)(=O)NC2c3ccccc3Oc3ccccc32)cc1 (U2OS).
OUTPUT: 0

INPUT: Give measured Population Apoptotic (%) for Cl.Cn1c2c(c3ccc(Cl)c(Cl)c31)C(C#N)C1(CCNCC1)NC2=O (centres undefined) (U2OS).
OUTPUT: 0

INPUT: Give measured Population Apoptotic (%) for CN1C(=O)[C@@H](NC(=O)c2cc3ccccc3[nH]2)N=C(c2ccccc2)c2ccccc21 [DEVAZEPIDE] (U2OS).
OUTPUT: 33

INPUT: Give measured Population Apoptotic (%) for CC(Cc1ccc(O)c(O)c1)C(C)Cc1ccc(O)c(O)c1 (centres undefined) [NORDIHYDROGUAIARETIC ACID] (U2OS).
OUTPUT: 0

INPUT: Give measured Population Apoptotic (%) for Cc1ccc(NC(=O)Nc2cc(C(F)(F)F)ccc2F)cc1Nc1ccc2c(c1)NC(=O)/C2=C\c1ccc[nH]1 (U2OS).
OUTPUT: 33

INPUT: Give measured Population Apoptotic (%) for CC(C)c1cc(Nc2nc(N3CCC[C@H](N)C3)ncc2C(N)=O)cc(C(C)C)n1 (U2OS).
OUTPUT: 44

INPUT: Give measured Population Apoptotic (%) for CCOc1ccn(-c2ccc(F)cc2)c(=O)c1C(=O)Nc1ccc(Oc2ccnc(N)c2Cl)c(F)c1 (U2OS).
OUTPUT: 28
